Origin of measurements: paper PMC8878464

Molecular target: human CB2R (hCB2R) (Homo sapiens)
Sequence (P34972 whole entry): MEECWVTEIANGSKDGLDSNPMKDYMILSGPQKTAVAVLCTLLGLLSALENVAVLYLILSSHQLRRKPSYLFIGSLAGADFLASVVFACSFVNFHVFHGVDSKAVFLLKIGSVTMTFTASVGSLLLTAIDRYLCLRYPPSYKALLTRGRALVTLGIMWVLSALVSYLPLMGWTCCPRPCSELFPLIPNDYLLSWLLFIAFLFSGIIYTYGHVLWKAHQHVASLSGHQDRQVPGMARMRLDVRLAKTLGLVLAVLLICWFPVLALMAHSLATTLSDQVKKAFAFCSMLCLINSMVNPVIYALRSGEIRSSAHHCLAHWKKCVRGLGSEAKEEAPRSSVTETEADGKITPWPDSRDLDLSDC
Assay: [3H]CP-55,940 competition displacement binding assay, hCB2R membranes
Conditions: Ki (nM) hCB2R

{"compound": "CCCCCCC(C)(C)c1cc(OC)c(C2(O)C3(C)CCC(C3)C2(C)C)c(OC)c1 (stereo not shown)", "unit abbreviation": "nM", "Ki": 3.51}

---

Molecular target: hCB2R (Homo sapiens)
Sequence (P34972 whole entry): as above
Test: [35S]GTPγS binding assay at hCB2R
Details: increase in [35S]GTPγS binding to hCB2R; two independent experiments in triplicate
pEC50: −log10 of the molar value.
Entries and their pEC50 values follow.
reported metric: pEC50

{"molecule": "CCCCCc1cc(O)c(C2(O)C3(C)CCC(C3)C2(C)C)c(OC)c1 (centres unmarked) [Compound 5b]", "quantitative result": 7.08}
{"molecule": "CCCCCCC(C)(C)c1cc(OC)c(C2(O)C3(C)CCC(C3)C2(C)C)c(OC)c1F (centres unmarked) [Compound 4d]", "quantitative result": 6.98}
{"molecule": "CCCCCCc1ccc(OC)c(C2(O)C3(C)CCC(C3)C2(C)C)c1OC (centres unmarked) [Compound 2b]", "quantitative result": 5.71}
{"molecule": "CCCCCCC(C)(C)c1cc(O)c(C2(O)C3(C)CCC(C3)C2(C)C)c(OC)c1 (centres unmarked) [Compound 5d]", "quantitative result": 7.83}
{"molecule": "CCCCCCC(C)(C)c1cc(OC)c(C2(O)C3(C)CCC(C3)C2(C)C)c(OC)c1 (centres unmarked) [Compound 1c]", "quantitative result": 6.92}
{"molecule": "CCCCCc1cc(OC)c(C2(O)C3(C)CCC(C3)C2(C)C)c(OC)c1 (centres unmarked) [Compound 1b]", "quantitative result": 7.94}
{"molecule": "CCCCCCC(C)(C)c1cc(OC)c(C2(O)C3(C)CCC(C3)C2(C)C)c(OC)c1 (centres unmarked) [Compound 1d]", "quantitative result": 8.59}
{"molecule": "CCCCCc1cc(OC)c(C2(O)C3(C)CCC(C3)C2(C)C)c(OC)c1F (centres unmarked) [Compound 4b]", "quantitative result": 6.52}
